Reported MIC values for the following compounds.
Tested on: C. glabrata 3 strains
Construct: 3 clinical isolates
assay comment: microbe, parasite or virus in culture
Parameters: species or system clinical Candida isolates; broth microdilution antifungal MIC, visual growth inhibition, CLSI
protocol conditions: Nakaseomyces glabratus, 24 h, read-out: Tested Fungi (MIC Values μg/mL) / C. glabrata 3 strains

{"columns": ["compound", "assay readout", "result"],
 "data": [
  ["O=C(N/N=C1\\SCC(=O)N1c1ccccc1Br)C(O)c1ccccc1 (stereo not drawn)", "MIC", "8 to 32 µg/mL"],
  ["Cc1cccc(N2C(=O)CS/C2=N\\NC(=O)C(O)c2ccccc2)c1 (stereo not drawn)", "MIC", "8 to 32 µg/mL"],
  ["Cc1ccc(N2C(=O)CS/C2=N\\NC(=O)C(O)c2ccccc2)cc1 (stereo not drawn)", "MIC", "8 to 32 µg/mL"],
  ["Cc1ccc(N2C(=O)C(C)S/C2=N\\NC(=O)C(O)c2ccccc2)cc1 (stereo not drawn)", "MIC", "8 to 32 µg/mL"],
  ["Cc1ccccc1N1C(=O)CS/C1=N\\NC(=O)C(O)c1ccccc1 (stereo not drawn)", "MIC", "8 to 32 µg/mL"],
  ["CC1S/C(=N\\NC(=O)C(O)c2ccccc2)N(c2cccc(Br)c2)C1=O (stereo not drawn)", "MIC", "4 to 8 µg/mL"]
]}

# lookup: MIC of CC1S/C(=N\NC(=O)C(O)c2ccccc2)N(c2ccc(Br)cc2)C1=O (stereo not drawn)
4 to 8 µg/mL

Then this compound: O=C(N/N=C1\SCC(=O)N1c1ccc(Br)cc1)C(O)c1ccccc1 (stereo not drawn)
4 to 8 µg/mL

Then O=C(N/N=C1\SCC(=O)N1c1cccc(C(F)(F)F)c1)C(O)c1ccccc1 (stereo not drawn) ?
4 to 8 µg/mL
